Where do the numbers come from? From paper PMC9276671.

# assayProtocol: Plasma pharmacokinetics of ALM201 in Phase I patients (validated LC-MS/MS, Phoenix WinNonlin)
# assayContext: human, plasma, sc, 300 mg, Plasma concentration, geometric mean (CV%), 300 mg SC, day 1 cycle 1, 7 h after dosing, n = 3; LC-MS/MS
No end group written: not given here.
quantityKind: level at 7 h (ng/mL)
# output: bare number, implied unit ng/mL

Please give the measured level at 7 h for this sequence: IRQQPRDPPTETLELEVSPDPAS [ALM201] 703

----------
# assayProtocol: Plasma pharmacokinetics of ALM201 in Phase I patients (validated LC-MS/MS, Phoenix WinNonlin)
# assayContext: human, plasma, sc, 10 mg, Plasma concentration, geometric mean (CV%), 10 mg SC, day 18 cycle 6, 0.5 h after dosing, n = 1; LC-MS/MS
No end group written: not given here.
quantityKind: level at 0.5 h
Write the numeric value and follow it with the unit.

Please give the measured level at 0.5 h for this sequence: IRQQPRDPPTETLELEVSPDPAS [ALM201] 171 ng/mL
